tgt: PPARα (Homo sapiens)
Construct: PPARα (aa 167 to 469)
Sequence (Q07869 167-468 limits assumed): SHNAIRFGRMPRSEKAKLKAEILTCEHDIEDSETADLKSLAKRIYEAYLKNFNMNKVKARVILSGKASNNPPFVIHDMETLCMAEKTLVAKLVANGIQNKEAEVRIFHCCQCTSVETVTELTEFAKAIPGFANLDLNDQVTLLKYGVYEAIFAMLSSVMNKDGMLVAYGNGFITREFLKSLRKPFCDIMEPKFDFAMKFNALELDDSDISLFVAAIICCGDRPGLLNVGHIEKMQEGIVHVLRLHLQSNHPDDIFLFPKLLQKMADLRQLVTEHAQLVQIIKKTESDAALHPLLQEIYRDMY
assayOverview: Radioligand binding assay (SPA), PPARα receptor binding
settings: GST-PPARα-LBD fusion protein, scintillation proximity counting
Experimental: Background information on the performed assays can be found in: Nichols J S et al. “Development of a scintillation proximity assay for peroxisome proliferator-activated receptor gamma ligand binding domain”, (1998) Anal. Biochem. 257:112–119. […] PPARα receptor binding was assayed in TKE50 (50 mM Tris-HCl, pH 8, 50 mM KCl, 2 mM EDTA, 0.1 mg/ml fatty acid-free BSA and 10 mM DTT). […] Nonspecific binding was determined in the presence of 10^−4 M unlabelled compound. […]
Recorded measurements of IC50, one per entry
measure: IC50 (nM)

1) O=C(O)Cn1ccc2ccc(OCc3cnc(-c4ccc(C(F)(F)F)cc4)nc3C3CC3)cc21 211
2) Cc1nc(-c2ccc(C(F)(F)F)cc2)ccc1COc1ccc2c(c1)N(CC(=O)O)CC2 1580
3) Cc1nc(-c2ccc(C(F)(F)F)cc2)ncc1COc1ccc2c(ccn2CC(=O)O)c1 1320

====

Recorded measurements of IC50, one per entry
tgt: PPARγ (Mus musculus)
Construct: PPARγ (aa 174 to 476)
Sequence (P37238 204-505): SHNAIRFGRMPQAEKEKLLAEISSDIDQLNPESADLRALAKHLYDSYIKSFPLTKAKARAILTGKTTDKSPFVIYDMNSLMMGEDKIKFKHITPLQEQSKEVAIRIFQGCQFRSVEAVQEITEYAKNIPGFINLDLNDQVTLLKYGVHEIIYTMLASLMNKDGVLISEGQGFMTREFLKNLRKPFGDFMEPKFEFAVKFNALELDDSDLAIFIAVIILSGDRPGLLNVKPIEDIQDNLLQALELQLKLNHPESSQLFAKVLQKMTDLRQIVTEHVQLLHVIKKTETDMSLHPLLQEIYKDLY
assayOverview: Radioligand binding assay (SPA), PPARγ receptor binding
settings: GST-PPARγ-LBD fusion protein, scintillation proximity counting

compound	IC50
Cc1nc(-c2ccc(C(F)(F)F)cc2)ncc1COc1ccc2c(ccn2CC(=O)O)c1 [Example 2]	> 10 µM
Cc1nc(-c2ccc(C(F)(F)F)cc2)ccc1COc1ccc2c(c1)N(CC(=O)O)CC2 [Example 6]	> 10 µM
O=C(O)Cn1ccc2ccc(OCc3cnc(-c4ccc(C(F)(F)F)cc4)nc3C3CC3)cc21 [Example 7]	> 10 µM

====

tgt: PPARδ (Homo sapiens, UniProt Q03181)
Construct: PPARδ (aa 139 to 442)
Sequence (Q03181 139-441 limits assumed): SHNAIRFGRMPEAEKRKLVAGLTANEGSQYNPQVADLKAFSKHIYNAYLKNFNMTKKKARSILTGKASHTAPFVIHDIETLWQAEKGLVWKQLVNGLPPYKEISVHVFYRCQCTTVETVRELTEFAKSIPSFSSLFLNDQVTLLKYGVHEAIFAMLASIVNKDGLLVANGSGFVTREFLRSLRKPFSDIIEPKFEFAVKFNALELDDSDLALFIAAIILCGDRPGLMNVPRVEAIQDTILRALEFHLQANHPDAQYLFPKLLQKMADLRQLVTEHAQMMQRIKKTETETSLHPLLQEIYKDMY
assayOverview: Radioligand binding assay (SPA), PPARδ receptor binding
settings: GST-PPARδ-LBD fusion protein, scintillation proximity counting
pIC50: −log10 of the molar value.
Recorded measurements of pIC50, one per entry
measure: pIC50

1. Cc1nc(-c2ccc(C(F)(F)F)cc2)ccc1COc1ccc2c(c1)N(CC(=O)O)CC2 7.77
2. Cc1nc(-c2ccc(C(F)(F)F)cc2)ncc1COc1ccc2c(ccn2CC(=O)O)c1 7.08
3. O=C(O)Cn1ccc2ccc(OCc3cnc(-c4ccc(C(F)(F)F)cc4)nc3C3CC3)cc21 9.00
